The entries below come with measured melting point values attached.

# count of solved cases: 6
Form: compound = O=C1Cc2cc(C3=NNC(=O)C4CC34)ccc2N1 (centres undefined) ; melting point = 305 to 307 °C

GET /value?item= CCOC(=O)[C@H](CC(C)C)NC(=O)[C@@H](NC(=O)c1ccccc1)C(C)C &field=melting point returns 159 to 160 °C

Note to self: melting point recorded for CCC(=CC(CNC(=O)c1ccncc1)=NO)C(C)[N+](=O)[O-] (centres undefined) was 145 to 148 °C

Entry COc1cc(F)c(C(=O)Nc2c(Cl)cncc2Cl)cc1OC1CCCC1 ; melting point = 143 to 144 °C

The measured melting point associated with CCOc1nnc2c3ccc(Cl)cc3c(-c3ccccc3)nn12 reads 226 to 228 °C

// recorded melting point for C=C(Cl)COc1ccc(Br)cc1CN(CC)c1ccc(C(=O)O)cn1 : 207 to 209 °C

Further cases:
In plain terms, CC(C)S(=O)(=O)n1c(N)nc2ccc(C(=O)c3ccccc3)cc21 has a documented melting point of 191 to 193 °C

melting point recorded for this compound, COc1ccc(C[C@H](NC(=O)OCc2ccccc2)[C@H]2CO2)cc1 , is 86 to 87 °C

compound Cc1c(OCC(F)(F)F)ccnc1CS(=O)c1nc2ccccc2n1S(=O)(=O)c1ccc(OCC(=O)Nc2ccccn2)cc1 (centres undefined) , melting point observed: 78 to 81 °C

For this compound ( CCOC(=O)c1c(Cl)c2cccnc2n(Cc2ccccc2)c1=O ), measured melting point is 109 °C

Lab note: N#Cc1cccc(N2C(=O)CC(=O)Nc3c2ccc2ccccc32)c1 gave melting point of 220 to 222 °C

The measured melting point associated with CCOC(=O)c1cnn2c1nc(NC)c1cnc3c(cnn3CC)c12 reads 321 to 322 °C

The recorded melting point for COc1ccc(-c2[nH]nc(C(=O)Oc3ccccc3)c2N)cc1 is 286 to 291 °C

Looking up CCn1c(N)c(-c2ncc[nH]2)c(=O)c2ccc(-c3ccc(CCCC(=O)NCc4ccncc4)cc3)nc21 , I see its melting point listed as 240 °C

---

Reported Metric: melting point

The cases that follow already have their melting point on record.
Query CC(C)(CNc1ccnc2cc(Cl)ccc12)NCc1ccc(F)c(Cl)c1 yields melting point of 164 to 165 °C

Looking up COc1c(Cl)cc(Cl)cc1-n1c(=O)[nH]c2ccccc21 , I see its melting point listed as 202 to 203 °C

The compound listed as O=C(Nc1cc(Cl)cc(Cl)c1)c1cccc(Cl)c1O shows melting point equal to 255 to 256 °C

Recorded result, CCNC1C(C)CN(c2c(F)c(N)c3c(=O)c(C(=O)O)cn(C4CC4)c3c2OC)CC1C (centres undefined) , melting point: 202 to 204 °C

Reported melting point ( CC(=O)NNc1nc(C(F)(F)F)nc(-c2ccc(S(C)(=O)=O)cc2)c1-c1ccccc1 ) = 265 to 268 °C

***
Data point: CC1C(=O)CSCC1=O ; melting point = 131 to 133 °C

Sure, the documented melting point for O=C(NC1CCc2ccccc2C(CCCc2ccccc2)C1=O)OCc1ccccc1 (centres undefined) is 106 to 108 °C

Measured melting point of Cc1ccc(S(=O)(=O)N(C)c2ccc(S(C)(=O)=O)cc2C#N)cc1 : 179 to 180 °C

melting point measured on CCOC(=O)C(NC(=O)CNC(N)=O)C(=O)OCC = 140 to 142 °C

The reported melting point of the compound Cn1ccc2ccc(N3Cc4ccc(-c5cccnc5)cc4C3=O)cc21 was 187 to 188 °C

---

Measured melting point, listed per entry for reference.

The reported melting point of the compound C=CCOc1ccc2c(c1)CCNC2=O was 105 to 107 °C

Lab note: Cc1c(O)c(C)c(Br)c(C)c1Br gave melting point of 144 to 146 °C

Field melting point (entry CNS(=O)(=O)c1ccccc1C ) reads 62 to 64 °C

Entry COCc1cc(Oc2ccc3c(C(=O)Nc4ccc(C)c(C(F)(F)F)c4)cccc3c2)ncn1 ; melting point = 188 °C

More entries:
Form field melting point, entry c1ccc2c3c4c(nc2c1)CCCC4SCCN3 (stereo unspecified) : 171 to 175 °C

melting point reported for this compound O=C(O)Cc1ccc(NC(=O)C(COc2cccc(Cl)c2)NS(=O)(=O)c2ccc(F)cc2)cc1 (racemic) : 195 to 197 °C

// melting point lookup, compound = CCOC(=O)c1c(SCOC)nc2cc(F)c(F)cc2c1O , result: 123 to 127 °C

CN(CCNCc1c(O)c(Br)cc2c1CCC2(C)C)CCNC(=O)c1nc(Cl)c(N)nc1N yielded melting point of 134 to 136 °C

Lab note: C=C(c1ccccc1)c1ccc(N(C)C)cc1 gave melting point of 51 to 52 °C

melting point for CCCc1nc(NCCO)nc(N2CCOCC2)n1 is 95 to 99 °C

Sure, the documented melting point for N#CCOc1cc(-c2ccccc2)[nH]n1 is 143 °C

The compound identified as O=C1Cc2cc(NC(=O)C(=O)N3CCC(CCc4ccccc4)CC3)ccc2N1 registered its melting point at 236 to 240 °C

CC(=O)OC[C@H]1NC(=O)[C@H]1NC(=O)C(=NOC(C)(C)C(=O)OCc1ccc([N+](=O)[O-])cc1)c1csc(NC(=O)CCl)n1 (relative stereo) has a reported melting point of 120 to 123 °C

# melting point (compound: COc1cc(S(C)=O)ccc1-c1ccc(C#N)c(=O)[nH]1 (stereo unspecified) ) is 239 to 241 °C

melting point recorded for this compound, O=C1OCC2C3OC(C4=C3CCCC4)C12 (stereo unspecified) , is 105 to 106 °C

Please fill in: melting point reported for C=CCn1c(=O)c2[nH]c(/C=C/c3cc(OC)c(OC)c(OC)c3)nc2n(CC=C)c1=O = 253 to 255 °C

For CCCCC(C=O)(CC)CS(=O)(=O)c1ccccc1C(=O)c1ccccc1 (stereo unspecified) the compound record lists melting point as 135 to 136 °C

Per the record, CCC(Oc1ccc(Cl)cc1)C(=O)OC1CC(O)C=C2C=CC(C)C(CCC3CC(O)CC(=O)O3)C21 (mixture of isomers) has melting point of 140 to 142 °C

---

Reported Metric: melting point

// known answers, use as guide
Input O=CN1[C@@H](c2cccnc2)SC[C@H]1C(=O)O . Output melting point: 250 °C

Entry Cc1cc(C)n(CCOc2cc3c(cc2C)OC2(CC(C)(C)c4cc(O)c(C)cc4O2)CC3(C)C)n1 (stereo not given) ; melting point = 223 to 225 °C

// CC#CCOc1ccc(S(=O)(=O)N(C)C(C(=O)NO)c2ccc(OCCCNC(=O)OCCCC)cc2)cc1 (stereo not given) : melting point value = 50 to 55 °C

// sample CNc1nc(N)ncc1-c1ccc(Cl)cc1Cl , its melting point was 189 to 190 °C

Others:
Query O=[N+]([O-])c1cccc(-c2ccnc3[nH]c4ccccc4c23)c1 yields melting point of > 220 °C

Recorded result, C[C@@H]([C@@H]1CCC(=O)O1)N(Cc1ccccc1)Cc1ccccc1 , melting point: 61 to 62 °C

Summary for this compound, O=C1Nc2cccnc2C12COc1cc3c(cc12)OCCO3 (stereo not given) : melting point is > 250 °C

Consider CC(=O)OCC(COC(C)=O)(NC(=O)OC(C)(C)C)C(=O)c1ccccc1 . Its measured melting point is 112 to 113 °C

The compound NC(=O)C(CCCCCc1ccc(Cl)cc1)C(=O)O (stereo not given) showed melting point equal to 125 to 126 °C

// melting point value for O=[N+]([O-])c1cc2cc(Cl)ccc2nc1Cl : 190 °C

---

Consider the following compounds and their measured melting point readings.

Consider the reported melting point for these compounds:
Item: CCOC(=O)c1cc(Br)c2oc(C)c(C)c2c1 | melting point: 110 to 111 °C

Form field melting point, entry C=CCc1c(O)ccc2oc(C(=O)OCC)cc12 : 94 to 95 °C

Lab note: CCN(CC)CCNC(=O)c1cc(Cl)c(N)cc1OCC(=O)c1ccccc1 gave melting point of 153 to 154 °C

Now let's try a different one.
The compound listed as CC1C(=O)N(c2ccc([N+](=O)[O-])cc2)C(=S)N1c1ccc(Cc2ccccc2)cc1 (centres undefined) has a reported melting point of 200 °C

---

// reported melting point per item

Answered examples (6):
Summary for this compound, CSc1nc2ccnn2c(O)c1C#N : melting point is > 250 °C

// sample COc1ccc(-c2cc(=O)n(C)c(=O)[nH]2)cc1OC , its melting point was 262 to 263 °C

Noted for O=C1CCC2(c3c[nH]cn3)Cc3ccccc3C12 (stereo not drawn) : its melting point reads 234 to 236 °C

melting point measured on O=C(O)[C@@]1(O)C[C@@H](O)[C@H](O)C2=C1CC(Cc1ccccc1)(Cc1ccccc1)S2 = 209 to 212 °C

get_value(item= CCCCCCOc1ccc(S(=O)(=O)N(CC(=O)NO)CC(C)C)cc1 , readout=melting point) returns 108 to 110 °C

Query NC(=O)c1sc2nc(N3CCC(NCC(O)c4ccccn4)CC3)cc(C(F)(F)F)c2c1N (stereo not drawn) yields melting point of 165 to 167 °C

***
get_value(item= CCC1(c2cccc([N+](=O)[O-])c2)C(=O)NC(=O)NC1=O , readout=melting point) returns 283 to 284 °C

Notebook: C#CCOC(=O)C=Cc1csc(Cl)c1Cl , melting point read as 84 to 86 °C

Value of melting point reported for the compound O=C(O)COc1ccc(-c2ccc(-c3c(Cc4ccccc4)sc4ccccc34)cc2)cc1Br is 150 to 152 °C

Recorded melting point (compound Cc1cc(Cl)c(OCCO[Si](C)(C)C(C)(C)C)cc1Nc1nnc2n1[C@H](c1ccc(F)cc1)COC2 ): 141 to 142 °C

Record O=CNCC(=O)c1ccc(Cl)s1 , field melting point: 111 to 113 °C

Quick note, melting point for CS(=O)(=O)c1cccc(NC(=O)c2ccccc2O)c1 landed at 210 to 212 °C

Memo: CCOc1nc(=O)n(C(C)C)c(=O)[nH]1 , reported melting point: 170 to 171 °C

Summary for this compound, CC(=O)Oc1ccc(C(=NNc2cccc([N+](=O)[O-])c2)c2ccc(OC(C)=O)cc2)cc1 : melting point is 88 to 90 °C

Entry c1ccc2c(NCCCCNc3nccc4ccccc34)nccc2c1 ; melting point = 189 to 192 °C

Record Cc1cc2c(-c3ccccc3F)nc(=O)n(C)c2s1 , field melting point: 119 to 121 °C

The reported melting point of the compound O=C(NCCO)c1cccc(-c2cccc3nc(Cc4cccc(C(F)(F)F)c4)oc23)c1 was 122 to 123 °C

Looking up O=[N+]([O-])c1cn2c(n1)O[C@@H](CN1CCN(Cc3ccc(C(F)(F)F)cc3)CC1)C2 , I found its melting point recorded as 149 to 150 °C

The reported melting point of the compound Cc1nccn1-c1nc(-c2ccc(Cl)cc2)c(CCCC(=O)O)o1 was 211 to 212 °C
